# tgt: human MAL (human) (UniProt P58753)
# experiment summary: P3 phage display panning on plate-immobilised MAL, after round 4, NGS
Binary call on Population: criterion met from 1% upward, criterion not met beneath that.

Use these answered entries as a reference point.
In [3]: df
Out[3]:
             binder           category
0  SLRKNLVSNLIEEFKR      criterion met
1  FLNFRGLDVRNYFLGH      criterion met
2  KWFWDKLIYALSRNPH      criterion met
3  NELVHVWSSKANSLVG  criterion not met
4  LVAHEISKKMKIFATI  criterion not met

Req: Entry KMQKWKDALYEAANLS : is its Population no less than 1%?
Resp: criterion met

Req: Entry LKWGDPYFWSKLRYAM : is its Population no less than 1%?
Resp: criterion met

Req: Entry LKVESWRQALEKAGKL : is its Population no less than 1%?
Resp: criterion met
